Numbers sourced from ChEMBL document CHEMBL3301361.

Assay: in vitro
Conditions: human, plasma, PPB
parameter_measured: fraction unbound at 5 h
Output: the number by itself.

Prompt: Provide measured fraction unbound at 5 h value, entry: `CC(=O)Nc1ccc2c(c1)N(c1cc(NC3CC3)n3ncc(C#N)c3n1)CCC2`
Response: 0.0262

Prompt: Provide measured fraction unbound at 5 h value, entry: `Cc1c(Sc2ccc(Cl)cc2)c2c(S(C)(=O)=O)cccc2n1CC(=O)O`
Response: 0.035

Prompt: Provide measured fraction unbound at 5 h value, entry: `Cc1cnc(Nc2cc(N3CCOCC3)nc(N[C@@H](C)c3ccc(F)cn3)n2)s1`
Response: 0.0262

Prompt: Provide measured fraction unbound at 5 h value, entry: CC(C(=O)O)c1ccc2oc(-c3ccc(Cl)cc3)nc2c1 (stereo not given)
Response: 0.0024

Prompt: Provide measured fraction unbound at 5 h value, entry: `COc1cc(Nc2cc(N3CCOCC3)nc(N[C@@H](C)c3ncc(F)cn3)n2)n[nH]1`
Response: 0.276

----------
Experiment: physchem
Details: octan-1-ol/water, pH 7.4, LogD7.4
parameter_measured: logD
Output: the number by itself.

Prompt: Provide measured logD value, entry: `COc1cc(F)ccc1-c1cccc(CNC2CCCC2)c1`
Response: 2.29

Prompt: Provide measured logD value, entry: `CN(C)C(=O)c1ccc(CN2CCc3cc4nc(N)sc4cc3CC2)cc1`
Response: 1.72

Prompt: Provide measured logD value, entry: `COc1cc(F)ccc1-c1cncc(CNC2CCCC2)c1`
Response: 2.29

Prompt: Provide measured logD value, entry: CC(C)C(NC(=O)Cn1c(-c2cccc(C(=O)O)c2)ccc(NC(=O)OCc2ccccc2)c1=O)C(=O)C(F)(F)F (stereo not given)
Response: 1.2

Prompt: Provide measured logD value, entry: `Cc1oc(S(C)(=O)=O)cc1-c1c2c(=O)n(C)c(=O)n(CC3CC3)c2nn1Cc1ccnc2ccc(Cl)cc12`
Response: 3.2

----------
For each of the compounds below, state its fraction unbound at 5 h.
Test: in vitro
Conditions: SD, HW or BN, rat, plasma
Output: the number by itself.

Prompt: Provide measured fraction unbound at 5 h value, entry: `Cc1nccn1-c1sc(Nc2cnccn2)nc1-c1cccc(C#N)c1`
Response: 0.0437

Prompt: Provide measured fraction unbound at 5 h value, entry: `CC(C)(C)OC(=O)NC[C@H]1CC[C@H](CNC(=O)c2cc(N3CCC(CCN4CC(O)C4)CC3)nc3ccccc23)CC1`
Response: 0.0328

Prompt: Provide measured fraction unbound at 5 h value, entry: `COc1cccc(CNCc2cccc(CCNC[C@H](O)c3ccc(O)c4[nH]c(=O)sc34)c2)c1`
Response: 0.154

Prompt: Provide measured fraction unbound at 5 h value, entry: `Cc1cn([C@H]2CCCN([C@H](CC(C)(C)C)c3ccc(C(=O)O)c(Oc4cccc(Br)c4)c3)C2)c(=O)[nH]c1=O`
Response: 0.0149

----------
Assay: physchem
Conditions: pH 7.4 buffer
For each of the compounds below, state its solubility thermodynamic.
Enter your answer as a number in µM; do not include the unit.

Prompt: Provide measured solubility thermodynamic value, entry: `O=C(O)CC(=O)N[C@@H]1c2ccccc2C[C@H]1NC(=O)c1cc2sc(Cl)c(Cl)c2[nH]1`
Response: 1170

Prompt: Provide measured solubility thermodynamic value, entry: `CCOc1ccccc1C(=O)N1CCC(C(=O)c2ccc(F)cc2)CC1`
Response: 5.8

Prompt: Provide measured solubility thermodynamic value, entry: `Cc1c(Cl)c(C(F)(F)F)nn1CC(=O)N1CCN(c2ccc(F)cc2)CC1`
Response: 1.9

Prompt: Provide measured solubility thermodynamic value, entry: `Cc1c(-c2ccc3c(c2)OCO3)c(=O)n(C[C@H](N)c2ccccc2)c(=O)n1Cc1c(F)cccc1F`
Response: 372

Prompt: Provide measured solubility thermodynamic value, entry: `CSc1nccc(Nc2cc(NC(=O)c3cc(F)cc(N4CCOCC4)c3)ccc2C)n1`
Response: 0.7

Prompt: Provide measured solubility thermodynamic value, entry: `Cn1cc(C2=C(c3cn(C4CCN(Cc5ccccn5)CC4)c4ccccc34)C(=O)NC2=O)c2ccccc21`
Response: 0.8

Prompt: Provide measured solubility thermodynamic value, entry: `O=C(O[C@H]1C[N+]2(CCCOc3ccccc3)CCC1CC2)C(O)(c1cccs1)c1cccs1`
Response: 339

Prompt: Provide measured solubility thermodynamic value, entry: `C[C@H](Oc1cccc2ncnc(Nc3ccc4c(cnn4Cc4ccccn4)c3)c12)C(=O)N1CCOCC1`
Response: 166

Prompt: Provide measured solubility thermodynamic value, entry: `COc1cc(Nc2ncnc(Nc3c(Cl)ccc4c3OCO4)n2)cc(OC)c1OC`
Response: 6.2

Prompt: Provide measured solubility thermodynamic value, entry: CCN(C(=O)Cc1ccc(S(C)(=O)=O)cc1)C1CCN(CCC(c2ccccc2)c2ccc(NC(C)=O)cc2)CC1 (centres undefined)
Response: 692

Prompt: Provide measured solubility thermodynamic value, entry: `COc1cc2ncnc(Nc3cccc(Cl)c3F)c2cc1CN1CC[C@H](C(N)=O)C1`
Response: 77.6

Prompt: Provide measured solubility thermodynamic value, entry: `CNC(=O)[C@@H](NC(=O)[C@H](CC(C)C)[C@@H](Sc1ccccc1)C(=O)NO)C(C)(C)C`
Response: 83.2

Prompt: Provide measured solubility thermodynamic value, entry: `COc1cc(N2CCN(CC(=O)N(C)C)CC2)ccc1Nc1ncc(Cl)c(-c2cnc3ccccn23)n1`
Response: 5

Prompt: Provide measured solubility thermodynamic value, entry: `CCCS(=O)(=O)c1ccc(Nc2nccc(-c3cnc(C)n3C(C)C)n2)cc1`
Response: 138

Prompt: Provide measured solubility thermodynamic value, entry: `COc1cc(-c2nn[nH]n2)ccc1Cn1ncc2ccc(NC(=O)OC3CCCC3)cc21`
Response: 43.7

Prompt: Provide measured solubility thermodynamic value, entry: `Cn1c(C#N)ccc1-c1ccc2c(c1)C(C)(C)OC(=O)N2`
Response: 13.2

Prompt: Provide measured solubility thermodynamic value, entry: `CN(C)CCSc1nc2ccc(Br)cc2cc1-c1ccccc1`
Response: 9.5

Prompt: Provide measured solubility thermodynamic value, entry: `CC(=O)N1CCN(c2ccc(Nc3nccc(-c4cnc(C)n4C(C)C)n3)cc2)CC1`
Response: 148

Prompt: Provide measured solubility thermodynamic value, entry: `Cc1cccc2c3cc(NC(=O)N4CCOCC4)ccc3n(C(C)C)c12`
Response: 5.1

----------
For each of the compounds below, state its fraction unbound at 5 h.
Test: in vitro
Conditions: human, plasma, PPB
Output: the number by itself.

Prompt: Provide measured fraction unbound at 5 h value, entry: `Cc1ccc(S(=O)(=O)N2N=Cc3oc(C)cc3B2O)cc1`
Response: 0.051

Prompt: Provide measured fraction unbound at 5 h value, entry: `Cc1onc(-c2c(Cl)cccc2Cl)c1NC(=O)OCc1c(F)cccc1Cl`
Response: 0.002

Prompt: Provide measured fraction unbound at 5 h value, entry: `O=C(NCCc1ccccc1)c1cc(-n2ncc(=O)[nH]c2=O)ccc1Cl`
Response: 0.0251

Prompt: Provide measured fraction unbound at 5 h value, entry: COc1ccc2c(c1)C(=O)C(=O)N2CC1COc2ccccc2O1 (stereo not given)
Response: 0.0066

Prompt: Provide measured fraction unbound at 5 h value, entry: `N#Cc1ccc(C[C@@H](C(=O)O)N2CCC(CN3CCC(Oc4ccc(Cl)c(Cl)c4)CC3)CC2)cc1`
Response: 0.0521

Prompt: Provide measured fraction unbound at 5 h value, entry: `C[C@@H]1CN(Cc2cc(Cl)ccc2OCC(=O)O)CCN1S(=O)(=O)c1ccccc1`
Response: 0.0051

Prompt: Provide measured fraction unbound at 5 h value, entry: `CCOC(=O)c1cnc2c(N)cccc2c1O`
Response: 0.201

Prompt: Provide measured fraction unbound at 5 h value, entry: `O=C(Nc1ccc(CCO)cc1)c1cc2cc(Cl)ccc2[nH]1`
Response: 0.0139

Prompt: Provide measured fraction unbound at 5 h value, entry: `COc1ccc(CNC(=O)Nc2ncc([N+](=O)[O-])s2)cc1`
Response: 0.0032

Prompt: Provide measured fraction unbound at 5 h value, entry: `CCN(CC)CCOc1ccc2c(c1)C(=O)c1cc(OCCN(CC)CC)ccc1-2`
Response: 0.517

----------
Experiment: in vitro
Details: human, plasma, PPB
Note to self: use yes (1) only for fraction unbound at 5 h readings below 0.03; a reading exactly at 0.03 still gets no (0).

Prompt: I'd appreciate it if you could check whether CN1CCN(CCCN2c3ccccc3Sc3ccc(C(F)(F)F)cc32)CC1 [TRIFLUOPERAZINE] has fraction unbound at 5 h smaller than 0.03.
Response: yes (1)

Prompt: I'd appreciate it if you could check whether `CC[C@@H](CO)Nc1nc(SCc2ccccc2)nc2nc(N)sc12` has fraction unbound at 5 h smaller than 0.03.
Response: no (0)

Prompt: I'd appreciate it if you could check whether `Cc1sc2c(c1C)c(=O)n(-c1ccc(F)cc1)c(=O)n2CC(=O)NCc1ccco1` has fraction unbound at 5 h smaller than 0.03.
Response: yes (1)

Prompt: I'd appreciate it if you could check whether `CCc1[nH]c2nc(Sc3cnc4ccc[n+]([O-])c4c3)nc(N3C[C@@H]4[C@@H](N)[C@@H]4C3)c2c1Cl` has fraction unbound at 5 h smaller than 0.03.
Response: no (0)

Prompt: I'd appreciate it if you could check whether `CN1CCN(c2ccc3ncc(C(N)=O)c(Nc4ccc(Cl)cc4Cl)c3c2)CC1` has fraction unbound at 5 h smaller than 0.03.
Response: yes (1)

Prompt: I'd appreciate it if you could check whether `CCCc1nn(C)c2c(=O)[nH]c(-c3cc(S(=O)(=O)N4CCN(C)CC4)ccc3OCC)nc12` has fraction unbound at 5 h smaller than 0.03.
Response: no (0)

Prompt: I'd appreciate it if you could check whether CCc1nc(N)nc(N)c1-c1ccc(Cl)cc1 [PYRIMETHAMINE] has fraction unbound at 5 h smaller than 0.03.
Response: no (0)

Prompt: I'd appreciate it if you could check whether `O=c1cc(N2CCOCC2)nc(NCc2ccccc2)[nH]1` has fraction unbound at 5 h smaller than 0.03.
Response: no (0)

Prompt: I'd appreciate it if you could check whether `Cc1ncc(C(N)=S)nc1-c1ccc([C@H]2CC[C@H](CC(=O)O)CC2)cc1` has fraction unbound at 5 h smaller than 0.03.
Response: yes (1)
